Give measured abundance fitness for each item. Keep answers brief.
B1: COUP transcription factor 1, residues 83 to 159; numbered along this chain, P10589 (parent)
chain: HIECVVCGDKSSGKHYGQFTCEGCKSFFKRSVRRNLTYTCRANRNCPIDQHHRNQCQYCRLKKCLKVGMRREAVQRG

Variants of: B1
assay.protocol: abundance fitness (aPCA) (normalised: wild type 0, dead -1); higher = more abundant; growth selection in yeast, the domain comes from the species named
setup.conditions: Homo sapiens
Number, no unit, nothing else.

**Query** I'd like to know its abundance fitness. The variant in question is V67H
**Result** -0.157

**Query** I'd like to know its abundance fitness. The variant in question is N43Y
**Result** -0.374

**Query** I'd like to know its abundance fitness. The variant in question is E22Q
**Result** 0.181

**Query** I'd like to know its abundance fitness. The variant in question is Y58T
**Result** -0.774

**Query** I'd like to know its abundance fitness. The variant in question is N35E
**Result** 0.161

**Query** I'd like to know its abundance fitness. The variant in question is Q57C
**Result** -0.093

**Query** I'd like to know its abundance fitness. The variant in question is C40V
**Result** -0.861

**Query** I'd like to know its abundance fitness. The variant in question is D49W
**Result** -0.13

**Query** I'd like to know its abundance fitness. The variant in question is D49Y
**Result** -0.261

**Query** I'd like to know its abundance fitness. The variant in question is S31C
**Result** 0.075

**Query** I'd like to know its abundance fitness. The variant in question is V32F
**Result** -0.068

**Query** I'd like to know its abundance fitness. The variant in question is D49H
**Result** -0.269

**Query** I'd like to know its abundance fitness. The variant in question is C56Q
**Result** -0.82

**Query** I'd like to know its abundance fitness. The variant in question is T39D
**Result** 0.12

**Query** I'd like to know its abundance fitness. The variant in question is Y16S
**Result** -0.047

**Query** I'd like to know its abundance fitness. The variant in question is N43R
**Result** 0.012

**Query** I'd like to know its abundance fitness. The variant in question is M69R
**Result** -0.737

**Query** I'd like to know its abundance fitness. The variant in question is L61F
**Result** -0.062

**Query** I'd like to know its abundance fitness. The variant in question is S31A
**Result** 0.036

**Query** I'd like to know its abundance fitness. The variant in question is L36D
**Result** -0.232

**Query** I'd like to know its abundance fitness. The variant in question is L61S
**Result** -0.691

**Query** I'd like to know its abundance fitness. The variant in question is F19M
**Result** -0.149

**Query** I'd like to know its abundance fitness. The variant in question is K29W
**Result** -0.149

**Query** I'd like to know its abundance fitness. The variant in question is T39W
**Result** 0.057

**Query** I'd like to know its abundance fitness. The variant in question is R33W
**Result** 0.068

**Query** I'd like to know its abundance fitness. The variant in question is G68L
**Result** -0.572

**Query** I'd like to know its abundance fitness. The variant in question is T39R
**Result** -0.108

**Query** I'd like to know its abundance fitness. The variant in question is R70V
**Result** 0.032

**Query** I'd like to know its abundance fitness. The variant in question is C64G
**Result** -0.669

**Query** I'd like to know its abundance fitness. The variant in question is S26C
**Result** -0.127

**Query** I'd like to know its abundance fitness. The variant in question is T37W
**Result** 0.138

**Query** I'd like to know its abundance fitness. The variant in question is G23C
**Result** 0.001

**Query** I'd like to know its abundance fitness. The variant in question is V67P
**Result** -0.953

**Query** I'd like to know its abundance fitness. The variant in question is P47K
**Result** -0.035

**Query** I'd like to know its abundance fitness. The variant in question is G68N
**Result** -0.211

**Query** I'd like to know its abundance fitness. The variant in question is V67Q
**Result** 0.036

**Query** I'd like to know its abundance fitness. The variant in question is L61P
**Result** -0.65

**Query** I'd like to know its abundance fitness. The variant in question is P47A
**Result** -0.008

**Query** I'd like to know its abundance fitness. The variant in question is R41P
**Result** 0.265

**Query** I'd like to know its abundance fitness. The variant in question is Q18R
**Result** -0.041

**Query** I'd like to know its abundance fitness. The variant in question is H51E
**Result** -0.041

**Query** I'd like to know its abundance fitness. The variant in question is C56M
**Result** -0.636

**Query** I'd like to know its abundance fitness. The variant in question is C59A
**Result** -0.668

**Query** I'd like to know its abundance fitness. The variant in question is C24I
**Result** -0.509

**Query** I'd like to know its abundance fitness. The variant in question is R53Y
**Result** 0.224

**Query** I'd like to know its abundance fitness. The variant in question is Q57M
**Result** -0.121

**Query** I'd like to know its abundance fitness. The variant in question is Y58V
**Result** -0.787

**Query** I'd like to know its abundance fitness. The variant in question is R41L
**Result** 0.228

**Query** I'd like to know its abundance fitness. The variant in question is F28M
**Result** -0.591

**Query** I'd like to know its abundance fitness. The variant in question is Q75C
**Result** -0.07

**Query** I'd like to know its abundance fitness. The variant in question is P47D
**Result** -0.271

**Query** I'd like to know its abundance fitness. The variant in question is I48C
**Result** -0.25

**Query** I'd like to know its abundance fitness. The variant in question is N35T
**Result** -0.346

**Query** I'd like to know its abundance fitness. The variant in question is L36R
**Result** -0.082

**Query** I'd like to know its abundance fitness. The variant in question is Q18M
**Result** 0.067

**Query** I'd like to know its abundance fitness. The variant in question is A73Y
**Result** -0.061

**Query** I'd like to know its abundance fitness. The variant in question is R41W
**Result** 0.145

**Query** I'd like to know its abundance fitness. The variant in question is R33C
**Result** -0.698

**Query** I'd like to know its abundance fitness. The variant in question is K29H
**Result** -0.048

**Query** I'd like to know its abundance fitness. The variant in question is K63P
**Result** -0.647

**Query** I'd like to know its abundance fitness. The variant in question is K29M
**Result** -0.055

**Query** I'd like to know its abundance fitness. The variant in question is R71G
**Result** -0.083

**Query** I'd like to know its abundance fitness. The variant in question is C40W
**Result** -0.712

**Query** I'd like to know its abundance fitness. The variant in question is A73N
**Result** 0.064

**Query** I'd like to know its abundance fitness. The variant in question is G77Q
**Result** 0.304

**Query** I'd like to know its abundance fitness. The variant in question is C59G
**Result** -0.789

**Query** I'd like to know its abundance fitness. The variant in question is H52P
**Result** 0.09

**Query** I'd like to know its abundance fitness. The variant in question is G77I
**Result** -0.042

**Query** I'd like to know its abundance fitness. The variant in question is L61H
**Result** -0.668

**Query** I'd like to know its abundance fitness. The variant in question is N54R
**Result** -0.353

**Query** I'd like to know its abundance fitness. The variant in question is R41S
**Result** 0.176

**Query** I'd like to know its abundance fitness. The variant in question is T37Y
**Result** -0.254

**Query** I'd like to know its abundance fitness. The variant in question is G17R
**Result** -0.421

**Query** I'd like to know its abundance fitness. The variant in question is C21H
**Result** -0.775

**Query** I'd like to know its abundance fitness. The variant in question is F19R
**Result** -0.098

**Query** I'd like to know its abundance fitness. The variant in question is E72A
**Result** -0.237

**Query** I'd like to know its abundance fitness. The variant in question is F19V
**Result** -0.269

**Query** I'd like to know its abundance fitness. The variant in question is C24E
**Result** -1.1

**Query** I'd like to know its abundance fitness. The variant in question is N43W
**Result** 0.015

**Query** I'd like to know its abundance fitness. The variant in question is R70C
**Result** -0.051

**Query** I'd like to know its abundance fitness. The variant in question is L65F
**Result** -0.039

**Query** I'd like to know its abundance fitness. The variant in question is D49C
**Result** -0.726

**Query** I'd like to know its abundance fitness. The variant in question is V74D
**Result** -0.065

**Query** I'd like to know its abundance fitness. The variant in question is L36C
**Result** -0.206

Data credit: the Human Domainome abundance scans (Beltran et al. 2025)
